A collection of binders and their measured A450
Assayed system: T1, Mouse Id3: Histidine (mouse, UniProt P41133 1-119)
T1 construct: Fusion protein made in E. coli from vector pGW07; also called m-Id3: His; Mouse Id3 (coated wells); not shown: His tag
T1 sequence: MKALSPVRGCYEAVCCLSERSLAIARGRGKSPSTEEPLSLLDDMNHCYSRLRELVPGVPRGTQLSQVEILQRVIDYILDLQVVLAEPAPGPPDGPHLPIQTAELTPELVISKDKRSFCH
Protocol text: ELISA, Ab 0.250 µg/ml
Answer in A450, number only, no unit symbol.

| Binder | A450 [A450] |
| --- | --- |
| rabbit monoclonal anti-mouse/human Id3, clone #BCH-4/#17-3 (antibody, V domains shown, Rabbit IgG from a rabbit hybridoma; also called m/h Id3 MoAb 17-3; BCH-3/#17-3) VH: QSVEESGGRLVTPGTPLTLTCTASGFSLSNVYIHWVRQAPGKGLEWIGYISDGDTARYATWAKGRFTISKTSSTTVNLKMTSLTTEDTATYFCARQGFNIWGPGTLVTVSL VL: AVLTQTPSPVSAAVGGTVSISCQSSQSVWNNNWLSWFQQKPGQPPKLLIYETSKLESGVPSRFKGSGSGTQFTLTISDVQCDDAATYYCLGGYWTTSDNNVFGGGTEVVVK | 3.62 |
| rabbit monoclonal anti-mouse/human Id3, clone #BCH-4/#16-1 (antibody, V domains shown, Rabbit IgG from a rabbit hybridoma; also called m/h Id3 MoAb 16-1) VH: QSVEESGGRLVTPGTPLTLTCTASGFSLSSYYIHWVRQAPGKALEWIGYISDGGTTYYASWAKGRFTISKTSSTTVDLKMTSLTTEDTATYFCARQGFNIWGPGTLVTVSL VL: AVLTQTPSPVSAAVGGTVTISCQSSQSVYNNNWLSWFQQKSGQPPKLLIYETSKLESGVPSRFKGSGSGTQFTLTIIDVQCDDAATYYCLGGYWTTSDNNIFGGGTEVVVK | 3.21 |
| rabbit monoclonal anti-mouse/human Id3, clone #BCH-4/#42-1 (antibody, V domains shown, Rabbit IgG from a rabbit hybridoma; also called m/h Id3 MoAb 42-1) VH: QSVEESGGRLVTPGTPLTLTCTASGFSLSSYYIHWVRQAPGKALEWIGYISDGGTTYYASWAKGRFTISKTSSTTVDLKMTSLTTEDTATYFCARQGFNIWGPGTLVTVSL VL: AVLTQTPSPVSAAVGGTVTISCQSSQSVYNNNWLSWFQQKSGQPPKLLIYETSKLESGVPSRFKGSGSGTQFTLTIIDVQCDDAATYYCLGGYWSTSDNNIFGGGTEVVVK | 3.55 |

Per the records, this binder ( rabbit monoclonal anti-mouse/human Id3, clone #BCH-4/#6-1 (antibody, V domains shown, Rabbit IgG from a rabbit hybridoma; also called m/h Id3 MoAb 6-1) VH: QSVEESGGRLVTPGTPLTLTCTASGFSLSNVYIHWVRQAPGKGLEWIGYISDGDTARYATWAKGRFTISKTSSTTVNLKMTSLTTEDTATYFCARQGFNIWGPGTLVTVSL VL: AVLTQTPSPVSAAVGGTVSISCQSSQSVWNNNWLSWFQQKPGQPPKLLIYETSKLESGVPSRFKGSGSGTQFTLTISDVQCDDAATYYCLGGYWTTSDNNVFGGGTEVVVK ) has A450 equal to 3.42
